Molecular target: fusion protein PRY
Sequence (chain, as listed by the source): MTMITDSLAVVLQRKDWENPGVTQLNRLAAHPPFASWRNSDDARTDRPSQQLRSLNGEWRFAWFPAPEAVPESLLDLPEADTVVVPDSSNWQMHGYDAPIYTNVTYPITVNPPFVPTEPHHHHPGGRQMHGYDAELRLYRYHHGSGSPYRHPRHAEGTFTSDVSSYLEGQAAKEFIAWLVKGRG
Endpoint label: relative cleavage efficiency

{"Protein": "OmpT protease variant OmpT D97V (protein) STETLSFTPDNINADISLGTLSGKTKERVYLAEEGGRKVSQLDWKFNNAAIIKGAINWDLMPQISIGAAGWTTLGSRGGNMVDQDWMDSSNPGTWTVESRHPDTQLNYANEFDLNIKGWLLNEPNYRLGLMAGYQESRYSFTARGGSYIYSSEEGFRDDIGSFPNGERAIGYKQRFKMPYIGLTGSYRYEDFELGGTFKYSGWVESSDNDEHYDPGKRITYRSKVKDQNYYSVAVNAGYYVTPNAKVYVEGAWNRVTNKKGNTSLYDHNNNTSDYSKNGAGIENYNFITTAGLKYTF", "Endpoint label": "relative cleavage efficiency", "Measured value": "less than 3.0%"}
{"Protein": "OmpT protease variant OmpT D97M (protein) STETLSFTPDNINADISLGTLSGKTKERVYLAEEGGRKVSQLDWKFNNAAIIKGAINWDLMPQISIGAAGWTTLGSRGGNMVDQDWMDSSNPGTWTMESRHPDTQLNYANEFDLNIKGWLLNEPNYRLGLMAGYQESRYSFTARGGSYIYSSEEGFRDDIGSFPNGERAIGYKQRFKMPYIGLTGSYRYEDFELGGTFKYSGWVESSDNDEHYDPGKRITYRSKVKDQNYYSVAVNAGYYVTPNAKVYVEGAWNRVTNKKGNTSLYDHNNNTSDYSKNGAGIENYNFITTAGLKYTF", "Endpoint label": "relative cleavage efficiency", "Measured value": "6.2%"}
{"Protein": "OmpT protease variant OmpT D97E (protein) STETLSFTPDNINADISLGTLSGKTKERVYLAEEGGRKVSQLDWKFNNAAIIKGAINWDLMPQISIGAAGWTTLGSRGGNMVDQDWMDSSNPGTWTEESRHPDTQLNYANEFDLNIKGWLLNEPNYRLGLMAGYQESRYSFTARGGSYIYSSEEGFRDDIGSFPNGERAIGYKQRFKMPYIGLTGSYRYEDFELGGTFKYSGWVESSDNDEHYDPGKRITYRSKVKDQNYYSVAVNAGYYVTPNAKVYVEGAWNRVTNKKGNTSLYDHNNNTSDYSKNGAGIENYNFITTAGLKYTF", "Endpoint label": "relative cleavage efficiency", "Measured value": "< 3%"}
{"Protein": "OmpT protease variant OmpT D97N (protein) STETLSFTPDNINADISLGTLSGKTKERVYLAEEGGRKVSQLDWKFNNAAIIKGAINWDLMPQISIGAAGWTTLGSRGGNMVDQDWMDSSNPGTWTNESRHPDTQLNYANEFDLNIKGWLLNEPNYRLGLMAGYQESRYSFTARGGSYIYSSEEGFRDDIGSFPNGERAIGYKQRFKMPYIGLTGSYRYEDFELGGTFKYSGWVESSDNDEHYDPGKRITYRSKVKDQNYYSVAVNAGYYVTPNAKVYVEGAWNRVTNKKGNTSLYDHNNNTSDYSKNGAGIENYNFITTAGLKYTF", "Endpoint label": "relative cleavage efficiency", "Measured value": "< 3%"}
{"Protein": "OmpT protease variant OmpT D97G (protein) STETLSFTPDNINADISLGTLSGKTKERVYLAEEGGRKVSQLDWKFNNAAIIKGAINWDLMPQISIGAAGWTTLGSRGGNMVDQDWMDSSNPGTWTGESRHPDTQLNYANEFDLNIKGWLLNEPNYRLGLMAGYQESRYSFTARGGSYIYSSEEGFRDDIGSFPNGERAIGYKQRFKMPYIGLTGSYRYEDFELGGTFKYSGWVESSDNDEHYDPGKRITYRSKVKDQNYYSVAVNAGYYVTPNAKVYVEGAWNRVTNKKGNTSLYDHNNNTSDYSKNGAGIENYNFITTAGLKYTF", "Endpoint label": "relative cleavage efficiency", "Measured value": "less than 3.0%"}

Given OmpT protease variant OmpT D97W (protein) STETLSFTPDNINADISLGTLSGKTKERVYLAEEGGRKVSQLDWKFNNAAIIKGAINWDLMPQISIGAAGWTTLGSRGGNMVDQDWMDSSNPGTWTWESRHPDTQLNYANEFDLNIKGWLLNEPNYRLGLMAGYQESRYSFTARGGSYIYSSEEGFRDDIGSFPNGERAIGYKQRFKMPYIGLTGSYRYEDFELGGTFKYSGWVESSDNDEHYDPGKRITYRSKVKDQNYYSVAVNAGYYVTPNAKVYVEGAWNRVTNKKGNTSLYDHNNNTSDYSKNGAGIENYNFITTAGLKYTF , state its recorded relative cleavage efficiency.
less than 3.0%

Recorded relative cleavage efficiency for OmpT protease variant OmpT D97C (protein) STETLSFTPDNINADISLGTLSGKTKERVYLAEEGGRKVSQLDWKFNNAAIIKGAINWDLMPQISIGAAGWTTLGSRGGNMVDQDWMDSSNPGTWTCESRHPDTQLNYANEFDLNIKGWLLNEPNYRLGLMAGYQESRYSFTARGGSYIYSSEEGFRDDIGSFPNGERAIGYKQRFKMPYIGLTGSYRYEDFELGGTFKYSGWVESSDNDEHYDPGKRITYRSKVKDQNYYSVAVNAGYYVTPNAKVYVEGAWNRVTNKKGNTSLYDHNNNTSDYSKNGAGIENYNFITTAGLKYTF , please?
< 3%
